- experimentalDetails: log P by HPLC on reversed-phase C18 columns (OECD Guideline 117); method [a] acidic pH 2.7, method [b] neutral pH 7.8
- Format: physicochemical
- runParameters: reversed-phase C18 HPLC column; HPLC reversed-phase C18, method [b] neutral pH 7.8; read-out: logP[b]
measure: chromatographic logP
Give your answer as a number; write no unit.

// chromatographic logP lookup, molecule = Cc1cc(F)c(-n2cnc3nc(-c4cncc(F)c4)sc3c2=O)cc1[S+]([O-])CC(F)(F)F (centres unmarked) , result: 2.26

// chromatographic logP lookup, molecule = Cc1cc(C)c([S+]([O-])CC(F)(F)F)cc1-n1cnc2nc(-c3cccnc3)sc2c1=O (centres unmarked) , result: 2.01

// chromatographic logP lookup, molecule = Cc1cc(C)c([S+]([O-])CC(F)(F)F)cc1-n1cnc2nc(-c3cncnc3)sc2c1=O (centres unmarked) , result: 1.82

// chromatographic logP lookup, molecule = O=c1c2sc(-c3cccnc3)nc2ncn1Cc1cccc(C(F)(F)F)c1 , result: 2.43

// chromatographic logP lookup, molecule = Cc1cc(F)c(-n2nnc3nc(-c4cccnc4)sc3c2=O)cc1SCC(F)(F)F , result: 3.32

// chromatographic logP lookup, molecule = CC(C)n1cnc2nc(-c3cccnc3)sc2c1=O , result: 1.43

// chromatographic logP lookup, molecule = Cc1cc(F)c(-n2cnc3nc(-c4cccnc4)sc3c2=O)cc1[S+]([O-])CC(F)(F)F (centres unmarked) , result: 1.98

// chromatographic logP lookup, molecule = Cc1cc(C)c(-n2cnc3nc(-c4cncnc4)sc3c2=O)cc1SCC(F)(F)F , result: 2.77

###

- experimentalDetails: log P by HPLC on reversed-phase C18 columns (OECD Guideline 117); method [a] acidic pH 2.7, method [b] neutral pH 7.8
- Format: physicochemical
- runParameters: HPLC reversed-phase C18, method [b] neutral pH 7.8
measure: logP[b]
Give your answer as a number; write no unit.

// logP[b] lookup, compound = O=c1c2sc(-c3cccnc3)nc2ncn1-c1cc([S+]([O-])CC2CC2)ccc1F (stereo not shown) [Compound 45] , result: 1.66

// logP[b] lookup, compound = Cc1cc(SC(F)(F)F)ccc1-n1cnc2nc(-c3cccnc3)sc2c1=O [Compound 64] , result: 2.89

// logP[b] lookup, compound = C[S+]([O-])c1cccc(-n2cnc3nc(-c4cccnc4)sc3c2=O)c1 (stereo not shown) [Compound 14] , result: 1.09

// logP[b] lookup, compound = CC(C)C[S+]([O-])c1cccc(-n2cnc3nc(-c4cccnc4)sc3c2=O)c1 (stereo not shown) [Compound 27] , result: 1.68

###

- experimentalDetails: log P by HPLC on reversed-phase C18 columns (OECD Guideline 117); method [a] acidic pH 2.7, method [b] neutral pH 7.8
- Format: physicochemical
- runParameters: reversed-phase C18 HPLC column; HPLC reversed-phase C18, method [a] acidic pH 2.7; read-out: logP[a]
Quick rule: chromatographic logP of at least 3 means Condition met, below that means Condition not met.

Enquiry: Would you say O=c1c2sc(-c3cccnc3)nc2ncn1Cc1cccc(C(F)(F)F)c1 shows chromatographic logP at minimum 3?
Return: Condition not met

Enquiry: Would you say Cc1cc(F)c(-n2c(C)nc3nc(-c4cccnc4)sc3c2=O)cc1SCC(F)(F)F shows chromatographic logP at minimum 3?
Return: Condition met

Enquiry: Would you say Cc1cc(F)c(-n2nnc3nc(-c4cccnc4)sc3c2=O)cc1SCC(F)(F)F shows chromatographic logP at minimum 3?
Return: Condition met

Enquiry: Would you say O=c1c2sc(-c3cccnc3)nc2ncn1-c1ccccc1SCC(F)(F)F shows chromatographic logP at minimum 3?
Return: Condition not met

Enquiry: Would you say Cc1cc(C)c(-n2cnc3nc(-c4cncnc4)sc3c2=O)cc1SCC(F)(F)F shows chromatographic logP at minimum 3?
Return: Condition not met

Enquiry: Would you say Cc1cc(F)c(-n2cnc3nc(-c4cncc(F)c4)sc3c2=O)cc1[S+]([O-])CC(F)(F)F (centres unmarked) shows chromatographic logP at minimum 3?
Return: Condition not met

Enquiry: Would you say Cc1cc(F)c(-n2cnc3nc(-c4cncc(F)c4)sc3c2=O)cc1SCC(F)(F)F shows chromatographic logP at minimum 3?
Return: Condition met

Enquiry: Would you say O=c1c2sc(-c3cccnc3)nc2ncn1-c1ccccc1[S+]([O-])CC(F)(F)F (centres unmarked) shows chromatographic logP at minimum 3?
Return: Condition not met

###

- experimentalDetails: log P by HPLC on reversed-phase C18 columns (OECD Guideline 117); method [a] acidic pH 2.7, method [b] neutral pH 7.8
- Format: physicochemical
- runParameters: reversed-phase C18 HPLC column; HPLC reversed-phase C18, method [a] acidic pH 2.7; read-out: logP[a]
Response field label: string, one of rule met (chromatographic logP strictly below 2) or rule not met.

Enquiry: Field: below-cutoff. Rule: recorded chromatographic logP strictly less than 2. Subject: Cc1cc(C)c([S+]([O-])CC(F)(F)F)cc1-n1cnc2nc(-c3cccnc3)sc2c1=O (stereo not drawn)
Return: rule not met

Enquiry: Field: below-cutoff. Rule: recorded chromatographic logP strictly less than 2. Subject: O=c1c2sc(-c3cccnc3)nc2ncn1Cc1ccccn1
Return: rule met

Enquiry: Field: below-cutoff. Rule: recorded chromatographic logP strictly less than 2. Subject: Cc1cc(F)c(-n2cnc3nc(-c4cccnc4)sc3c2=O)cc1SCC(=O)N(C)C
Return: rule met

Enquiry: Field: below-cutoff. Rule: recorded chromatographic logP strictly less than 2. Subject: Cc1cc(F)c(-n2nnc3nc(-c4cccnc4)sc3c2=O)cc1[S+]([O-])CC(F)(F)F (stereo not drawn)
Return: rule not met

Enquiry: Field: below-cutoff. Rule: recorded chromatographic logP strictly less than 2. Subject: O=c1c2sc(-c3cccnc3)nc2ncn1-c1ccc(SC(F)(F)F)cc1
Return: rule not met

Enquiry: Field: below-cutoff. Rule: recorded chromatographic logP strictly less than 2. Subject: CC(C)n1cnc2nc(-c3cccnc3)sc2c1=O
Return: rule met

Enquiry: Field: below-cutoff. Rule: recorded chromatographic logP strictly less than 2. Subject: Cc1cc(F)c(-n2cnc3nc(-c4cccnc4)sc3c2=O)cc1SCC(F)(F)F
Return: rule not met

Enquiry: Field: below-cutoff. Rule: recorded chromatographic logP strictly less than 2. Subject: CC(C)Cn1cnc2nc(-c3cccnc3)sc2c1=O
Return: rule met

Enquiry: Field: below-cutoff. Rule: recorded chromatographic logP strictly less than 2. Subject: Cc1cc(C)c(-n2cnc3nc(-c4cccnc4)sc3c2=O)cc1SCC(F)(F)F
Return: rule not met

Enquiry: Field: below-cutoff. Rule: recorded chromatographic logP strictly less than 2. Subject: O=c1c2sc(-c3cccnc3)nc2ncn1CC(F)(F)F
Return: rule met

Enquiry: Field: below-cutoff. Rule: recorded chromatographic logP strictly less than 2. Subject: CN(C)S(=O)(=O)c1cccc(-n2cnc3nc(-c4cccnc4)sc3c2=O)c1
Return: rule met

###

- experimentalDetails: log P by HPLC on reversed-phase C18 columns (OECD Guideline 117); method [a] acidic pH 2.7, method [b] neutral pH 7.8
- Type: physicochemical
- runParameters: HPLC reversed-phase C18, method [b] neutral pH 7.8
measure: logP[b]

// logP[b] lookup, molecule = O=c1c2sc(-c3cccnc3)nc2ncn1-c1ccc(Cl)cc1 [Compound 43] , result: 2.06

// logP[b] lookup, molecule = O=c1c2sc(-c3cccnc3)nc2ncn1-c1cccc(OCC(F)(F)F)c1 [Compound 41] , result: 2.34

// logP[b] lookup, molecule = CC[S+]([O-])c1ccc(-n2cnc3nc(-c4cccnc4)sc3c2=O)cc1 (stereo not drawn) [Compound 61] , result: 1.22

// logP[b] lookup, molecule = O=c1c2sc(-c3cccnc3)nc2ncn1C1CC1 [Compound 2] , result: 1.05

// logP[b] lookup, molecule = O=c1c2sc(-c3cccnc3)nc2ncn1-c1cccc(C(F)(F)F)c1 [Compound 9] , result: 2.23

// logP[b] lookup, molecule = O=c1c2sc(-c3cccnc3)nc2ncn1-c1cc(SCC(F)(F)F)c(Cl)cc1Cl [Compound 51] , result: 3.17

// logP[b] lookup, molecule = CSc1cc(-n2cnc3nc(-c4cccnc4)sc3c2=O)ccc1C [Compound 15] , result: 2.35

// logP[b] lookup, molecule = CC(C)CSc1cccc(-n2cnc3nc(-c4cccnc4)sc3c2=O)c1 [Compound 26] , result: 3.08

// logP[b] lookup, molecule = CCSc1ccccc1-n1cnc2nc(-c3cccnc3)sc2c1=O [Compound 66] , result: 2.21

###

For each entry below, report its chromatographic logP value.
- experimentalDetails: log P by HPLC on reversed-phase C18 columns (OECD Guideline 117); method [a] acidic pH 2.7, method [b] neutral pH 7.8
- Assay type: physicochemical
- runParameters: reversed-phase C18 HPLC column; HPLC reversed-phase C18, method [b] neutral pH 7.8; read-out: logP[b]
Give your answer as a number; write no unit.

// chromatographic logP lookup, compound = O=c1c2sc(-c3cccnc3)nc2ncn1-c1ccc([S+]([O-])C(F)(F)F)cc1 (centres unmarked) , result: 1.99

// chromatographic logP lookup, compound = Cc1cc(F)c(-n2c(C)nc3nc(-c4cccnc4)sc3c2=O)cc1[S+]([O-])CC(F)(F)F (centres unmarked) , result: 2.05

// chromatographic logP lookup, compound = Cc1cc(F)c(-n2cnc3nc(-c4cncc(F)c4)sc3c2=O)cc1SCC(F)(F)F , result: 3.25

// chromatographic logP lookup, compound = Cc1cc(C)c(-n2cnc3nc(-c4cccnc4)sc3c2=O)cc1SCC(F)(F)F , result: 2.98

// chromatographic logP lookup, compound = Cc1cc(F)c(-n2nnc3nc(-c4cccnc4)sc3c2=O)cc1[S+]([O-])CC(F)(F)F (centres unmarked) , result: 2.35

// chromatographic logP lookup, compound = Cc1nc(Cn2cnc3nc(-c4cccnc4)sc3c2=O)cs1 , result: 1.42

// chromatographic logP lookup, compound = Cc1cc(F)c(-n2cnc3nc(-c4ccc[n+]([O-])c4)sc3c2=O)cc1[S+]([O-])CC(F)(F)F (centres unmarked) , result: 1.45

// chromatographic logP lookup, compound = O=c1c2sc(-c3cccnc3)nc2ncn1-c1ccccc1[S+]([O-])CC(F)(F)F (centres unmarked) , result: 1.75
